# procedure-summary: Quantitative High-Throughput drug screen in 47 multiple myeloma cell lines against the NCATS MIPE library collection: XG1_PLB cell viability assay (AID 1919866); further: nearly all actives have a fitted effect of over 35% in size; further: potency means the concentration at half of the fitted maximal effect
# condition-set: CellTiter-Glo ATP, 48 h; series mostly up to 45.8 µM
Inconclusive results are not listed. Activity calls are given as the source filed them. The call rests on the fitted dose curve; in most records, active means well fitted cell-killing curve with a large enough effect; inconclusive means small, poorly fitted or top-dose-only effect, or effect the other way; inactive means no such curve, though single readings can be large or run the other way.
readout-label: Potency

1) CC1(C)S[C@H]2[C@H](NC(=O)[C@@H](N)c3ccc(O)cc3)C(=O)N2[C@@H]1C(=O)O :: 1.32 µM (active)
2) C[N+](C)(C)CC(=O)O :: inactive
3) NC(CO)(CO)CCc1ccc(Sc2cccc(OCc3ccccc3)c2)cc1Cl :: 16.6 µM (active)
4) Nc1nc(F)nc2c1ncn2[C@@H]1O[C@H](COP(=O)(O)O)[C@@H](O)[C@H]1O :: 29.6 µM (active)
5) C[C@]12CCC3c4ccc(O)cc4CCC3C1CCC2=O (stereo not given in full) :: inactive
6) CCCCCN(C)CCC(O)(P(=O)(O)O)P(=O)(O)O :: inactive
7) O=c1cc(N2CCOCC2)oc2c(-c3cccc4c3sc3ccccc34)cccc12 :: 6.62 µM (active)
8) NC(=O)c1cccc2[nH]c(-c3ccc([C@H]4CCCN4)cc3F)nc12 :: 8.33 µM (active)
9) Cc1[nH]c(C=C2C(=O)Nc3ccc(S(=O)(=O)Cc4c(Cl)cccc4Cl)cc32)c(C)c1C(=O)N1CCC[C@H]1CN1CCCC1 :: 5.26 µM (active)
10) Nc1ncnc2c1ncn2[C@@H]1O[C@H](CO)C[C@@H]1O :: inactive

* * *

# procedure-summary: Quantitative High-Throughput drug screen in 47 multiple myeloma cell lines against the NCATS MIPE library collection: PCM6_Riken cell viability assay (AID 1919870); further: nearly all actives have a fitted effect of over 30% in size; further: potency means the concentration at half of the fitted maximal effect
# condition-set: CellTiter-Glo ATP, 48 h; series mostly up to 45.8 µM
Inconclusive results are not listed. Calls of active or inactive are those of the source. Calls follow the shape of the dose curve; as a rule, active = well fitted cell-killing curve with a large enough effect; inconclusive = small, poorly fitted or top-dose-only effect, or effect the other way; inactive = no such curve, though single readings can be large or run the other way.
readout-label: Potency

1. CCn1cc(C(=O)O)c(=O)c2ccc(C)nc21 :: inactive
2. C=CCc1ccc(O)c(-c2ccc(O)c(CC=C)c2)c1 :: 20.9 µM (active)
3. Cc1ccc(Nc2cc(-c3cccc(N4C(=O)c5ccccc5C4=O)c3)ncn2)cc1NS(C)(=O)=O :: 14.8 µM (active)
4. COc1cc2c(cc1OC)CN(CCc1ccc(NC(=O)c3cc(OC)c(OC)cc3NC(=O)c3cnc4ccccc4c3)cc1)CC2 :: 18.7 µM (active)
5. COc1ccc(-c2coc3cc(O)ccc3c2=O)cc1 :: inactive

* * *

# procedure-summary: Tertiary RLuc qRT-PCR qHTS assay for Zika virus inhibitors (AID 1347169); further: nearly all actives have a fitted effect of over 55% in size
# condition-set: infected Vero cells, reporter luminescence, 48-72 h; series mostly up to 45.9 µM
Records with an inconclusive call do not appear. The source made the active and inactive calls. The call rests on the fitted dose curve; in most records, active means well fitted inhibition curve with a large enough effect; inconclusive means small, poorly fitted or top-dose-only effect; inactive means no such curve, though single readings can be large or run the other way.
Outcome codes: active, inactive

1. O=C(O)c1c(Cl)c(Cl)c(Cl)c(Cl)c1-c1c2cc(I)c(=O)c(I)c-2oc2c(I)c(O)c(I)cc12 :: inactive
2. CC(=O)Nc1ccc([C@H](C)C(=O)Nc2ncc(C(C)C)s2)cc1 :: active
3. C[C@H](NC(=O)C(=O)Nc1ccccc1C(C)(C)C)C(=O)N[C@@H](CC(=O)O)C(=O)COc1c(F)c(F)cc(F)c1F :: inactive
4. CC1(C)CCC(CN2CCN(c3ccc(C(=O)NS(=O)(=O)c4ccc(NCC5CCOCC5)c([N+](=O)[O-])c4)c(Oc4cnc5[nH]ccc5c4)c3)CC2)=C(c2ccc(Cl)cc2)C1 :: active

* * *

# procedure-summary: qHTS of pediatric cancer cell lines to identify multiple opportunities for drug repurposing: Primary screen for U-2 OS cells (AID 1347096);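 further: plate controls were DMSO wells for no effect and bortezomib positive control wells for full effect; nearly all actives have a fitted effect of over 50% in size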
# condition-set: U-2 OS viability, CellTiter-Glo luminescence, 48 h; series mostly up to 46 µM
Results filed as inconclusive are left out. Activity calls are given as the source filed them. Calls follow the shape of the dose curve; as a rule, active = well fitted cell-killing curve with a large enough effect; inconclusive = small, poorly fitted or top-dose-only effect; inactive = flat fitted curve, though single readings scatter.
readout-label: outcome

1) CC[C@@H]1C=C(C)C[C@H](C)C[C@H](OC)[C@H]2O[C@@](O)(C(=O)C(=O)N3CCCC[C@@H]3C(=O)O[C@H](C(C)=C[C@@H]3CC[C@H](Cl)[C@H](OC)C3)[C@H](C)[C@@H](O)CC1=O)[C@H](C)C[C@H]2OC :: inactive
2) NCCS :: inactive
3) COc1ccc2c(Oc3ccc(NC(=O)c4c(C)n(CC(C)(C)O)n(-c5ccccc5)c4=O)nc3)ccnc2c1 :: inactive
4) CCS(=O)(=O)N1CC(CC#N)(n2cc(-c3ncnc4[nH]ccc34)cn2)C1 :: inactive
5) CC(C)(C)c1cc(C(=O)O)c(NC(=O)Nc2ccc3[nH]ncc3c2)s1 :: inactive
6) C[C@@H]1CCN(C(=O)CC#N)C[C@H]1N(C)c1ncnc2[nH]ccc12 :: inactive
7) CCN(CC)C(=O)c1ccc(O)c(OC)c1 :: inactive
8) COc1cccc(-c2cc(=O)c3ccccc3o2)c1N :: inactive
9) NC1=N[C@@]2(c3cc(NC(=O)c4ccc(F)cn4)ccc3F)COC[C@@H]2CS1 :: inactive

* * *

# System: HEK293
# procedure-summary: Cytotoxic Profiling of Annotated Libraries Using Quantitative High-Throughput Screening (AID 1296008); further: on the % scale 0 is the no-effect control and ±100 the full control effect; nearly all actives have a fitted effect of over 60% in size
# condition-set: Five cell lines viability, CellTiter-Glo ATP luminescence, 48-72 h; stronger effect = lower value
Inconclusive results are not listed.
readout-label: max response (%)

1) O=C1NC(=O)C(=Cc2ccc3nccnc3c2)S1 :: -10.3
2) O=C(O)c1cc(O)c2c(c1)C(=O)c1cccc(O)c1C2=O :: -16.6
3) Cc1ccc(Nc2cc(-c3cccc(N4C(=O)c5ccccc5C4=O)c3)ncn2)cc1NS(C)(=O)=O :: -21.5
4) CCN(CC)C(=O)c1ccc(O)c(OC)c1 :: -4.79
5) CC(C)C(C)C=CC(C)C1CCC2C3=CC=C4CC(O)CCC4(C)C3CCC21C (stereo unspecified) :: 4.56
6) C[C@]12CCC3c4ccc(O)cc4CCC3C1CCC2=O (stereo partly specified) :: -11.3
7) CC(C)(C)c1ccc(C(O)CCCN2CCC(C(O)(c3ccccc3)c3ccccc3)CC2)cc1 (stereo unspecified) :: -7.01
8) COc1cc(NC(=O)c2ccc(-c3ccc(Cl)cc3)o2)cc(OC)c1 :: 2.11
9) O=C(O)CCC1CCC(c2cc(F)ccc2F)(S(=O)(=O)c2ccc(Cl)cc2)CC1 (stereo unspecified) :: -15.1
10) O=C1C[C@@H](c2ccc(O)cc2)Oc2cc(O)cc(O)c21 :: -0.968
11) O=C(NC1CCOCC1)c1ccc(-c2cc(-c3cn[nH]c3-c3ccccn3)ccn2)cc1 :: -15.5

* * *

# procedure-summary: Cellular Toxicity (caspase-3) SK-N-SH (AID 661);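 further: cells exposed to compound for 16 hours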;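 on caspase-3 activation: 0% = DMSO basal and 100% = 10 µM staurosporine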
# condition-set: SK-N-SH caspase-3 activation, qHTS; series mostly up to 91.7 µM
Activity calls are given as the source filed them. The call rests on the fitted dose curve; in most records, active means well fitted activation curve with a large enough effect; inconclusive means small, poorly fitted or top-dose-only effect; inactive means flat fitted curve, though single readings scatter.
Outcome codes: active, inactive

1. O=C(O)c1cc(O)c2c(c1)C(=O)c1cccc(O)c1C2=O :: inactive
2. CN(C)CCC(c1ccccc1)c1ccccn1 (stereo not given) :: inactive
3. CCn1cc(C(=O)O)c(=O)c2ccc(C)nc21 :: inactive
4. O=c1c(O)c(-c2ccc(O)cc2)oc2cc(O)cc(O)c12 :: inactive
5. CC1=C(/C=C/C(C)=C/C=C/C(C)=C/C(=O)Nc2ccc(O)cc2)C(C)(C)CCC1 :: active
6. CCCNC(=O)NS(=O)(=O)c1ccc(Cl)cc1 :: inactive
7. O=c1[nH]cnc2c1ncn2[C@H]1CC[C@@H](CO)O1 :: inactive
8. CC(=O)O[C@]1(C(C)=O)CC[C@H]2[C@@H]3C=C(Cl)C4=CC(=O)[C@@H]5C[C@@H]5[C@]4(C)[C@H]3CC[C@@]21C :: inactive
9. O=C1NC(=O)C(c2ccccc2)(c2ccccc2)N1 :: inactive
10. CC(=O)c1ccc(S(=O)(=O)NC(=O)NC2CCCCC2)cc1 :: inactive

* * *

# procedure-summary: Quantitative High-Throughput drug screen in 47 multiple myeloma cell lines against the NCATS MIPE library collection: NCIH929_DSMZ cell viability assay (AID 1918978); further: nearly all actives have a fitted effect of over 35% in size
# condition-set: NCI-H929 myeloma viability, CellTiter-Glo ATP, 48 h; series mostly up to 45.8 µM
Inconclusive results are not listed. Calls of active or inactive are those of the source. Calls follow the shape of the dose curve; as a rule, active = well fitted cell-killing curve with a large enough effect; inconclusive = small, poorly fitted or top-dose-only effect; inactive = no such curve, though single readings can be large or run the other way.
Outcome codes: yes (1) for active, no (0) for inactive

1. O=C(NC1CCOCC1)c1ccc(-c2cc(-c3cn[nH]c3-c3ccccn3)ccn2)cc1 :: no (0)
2. CC[C@@]1(O)C[C@H](O[C@H]2C[C@H](N(C)C)[C@H](O[C@H]3C[C@H](O)[C@H](O[C@H]4CCC(=O)[C@H](C)O4)[C@H](C)O3)[C@H](C)O2)c2c(cc3c(c2O)C(=O)c2c(O)cccc2C3=O)[C@@H]1C(=O)OC :: yes (1)
3. CCOC(=O)C1=C(N)Oc2ccc(Br)cc2C1C(C#N)C(=O)OCC (stereo not drawn) :: yes (1)
4. O=C(CCN1CCN(C(=O)OCc2cc(Cl)cc(Cl)c2)CC1)c1ccc2[nH]c(=O)oc2c1 :: no (0)
5. COc1ccc2c3c1OC1C[C@@H](O)C=C[C@@]31CCN(C)C2 (stereo partly drawn) :: yes (1)
6. CC(C)(C)OC(=O)N[C@H]1CCCCCC=C[C@@H]2C[C@@]2(C(=O)NS(=O)(=O)C2CC2)NC(=O)[C@@H]2C[C@@H](OC(=O)N3Cc4cccc(F)c4C3)CN2C1=O :: no (0)
7. CN1CCN(CCOc2cc(OC3CCOCC3)c3c(Nc4c(Cl)ccc5c4OCO5)ncnc3c2)CC1 :: yes (1)
8. COc1ccc(Cc2ccc(NC(N)=O)cc2)cc1-c1cccc(Cl)c1 :: yes (1)
9. O=c1cc(-c2ccc(O)cc2)oc2cc(O)cc(O)c12 :: yes (1)
10. NC[C@@H]1O[C@@H](O[C@H]2[C@@H](O)[C@H](O[C@@H]3[C@@H](O)[C@@H](N)C[C@H](N)[C@H]3O[C@H]3O[C@H](CN)[C@@H](O)[C@@H](O)[C@H]3N)O[C@H]2CO)[C@H](N)[C@@H](O)[C@@H]1O :: no (0)
11. CC(C)(C(=O)NCC(F)(F)C(F)(F)F)C(=O)N[C@@H]1C(=O)Nc2ccccc2-c2ccccc21 :: yes (1)
12. CC(=O)OC1C(C)OC(Oc2c(-c3ccc(O)cc3)oc3cc(O)cc(O)c3c2=O)C(O)C1OC(C)=O (stereo not drawn) :: no (0)
13. CC(C(=O)O)c1ccc(-c2ccccc2)c(F)c1 (stereo not drawn) :: yes (1)
14. COc1ccc(-c2coc3cc(O)ccc3c2=O)cc1 :: no (0)
15. Cc1nc(N)sc1-c1ccnc(Nc2ccc(N3CCOCC3)cc2)n1 :: yes (1)
16. Nc1ncnc2c1nc(Cl)n2[C@@H]1O[C@H](CO)[C@@H](O)[C@@H]1O :: yes (1)
17. COc1ccc2cccc(CCNC(C)=O)c2c1 :: no (0)
18. CC(C)=CC[C@@H](O)C1=CC(=O)c2c(O)ccc(O)c2C1=O :: yes (1)
